Biological target: ALKBH5 (Homo sapiens (Human))
Sequence (Q6P6C2 whole entry): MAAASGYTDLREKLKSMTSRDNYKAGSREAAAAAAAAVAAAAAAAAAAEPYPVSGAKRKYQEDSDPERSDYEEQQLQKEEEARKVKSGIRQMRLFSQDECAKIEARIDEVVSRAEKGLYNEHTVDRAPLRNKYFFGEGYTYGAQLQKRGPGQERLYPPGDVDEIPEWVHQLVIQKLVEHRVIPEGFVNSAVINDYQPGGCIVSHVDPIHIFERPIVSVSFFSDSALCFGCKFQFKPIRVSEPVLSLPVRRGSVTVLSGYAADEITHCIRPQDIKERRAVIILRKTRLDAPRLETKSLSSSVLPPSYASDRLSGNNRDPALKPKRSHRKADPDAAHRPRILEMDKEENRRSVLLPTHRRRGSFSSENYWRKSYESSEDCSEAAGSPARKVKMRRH
Assay: Fluorescence enzymatic inhibition assay (m6A7-Broccoli RNA / DFHBI-1T) against ALKBH5
Assay type: biochemical
Conditions: Table 700 compounds; read-out: Enzymatic IC50 ALKBH5
Experimental: Inhibitors were added in concentrations ranging from 0.008-40 μM; all inhibitors were dissolved in DMSO and added to a final concentration of 0.2% DMSO. […] After incubation at room temperature for 2 hours, the plates were left at 4° C. overnight (16 hours) to allow DFHBI-1T to bind to A7-Broccoli RNA. […] Sigmoidal dose-response curves were fitted in GraphPad Prism 6. All assays were performed in triplicate, with additional repetitions added as necessary.
# pIC50 values compiled below
// pIC50 here means minus log10 of the molar concentration (mol/L)

Some entries whose results are on file:
> print(dat)
                                   compound  experimental.result
1  COC(=O)C1COC(c2ccc(O)cc2)N1 (centres unmarked) [ALK-13]                 5.17
2  COC(=O)C1COC(c2ccccc2O)N1 (centres unmarked) [ALK-16]                 5.09
3  CC(C)(C)OC(=O)N1CCC(F)(C2NCCS2)C1 (centres unmarked) [ALK-02]                 4.78
4  COC(=O)C1COC(c2ccc(OC)c(Cl)c2)N1 (centres unmarked) [ALK-23]                 5.55
5  CCOC(=O)C1CC1C1NCCS1 (centres unmarked) [ALK-01]                 4.76

Ask | Determine from records and report pIC50 for COC(=O)C1COC(c2ccc(-c3ccccc3)s2)N1 (centres unmarked) [ALK-25]
Reply | 6.05

Ask | Determine from records and report pIC50 for COC(=O)C1COC(c2ccc(-c3ccccc3)o2)N1 (centres unmarked) [ALK-18]
Reply | 5.27

Ask | Determine from records and report pIC50 for O=C1N[C@H](C(=O)O)CS1 [ALK-10]
Reply | 5.77

Ask | Determine from records and report pIC50 for CC1(C)S[C@@H]2[C@H](N)C(=O)N2[C@H]1C(=O)O [ALK-07]
Reply | 5.00

All values here come from patent US20230322715A1.
